- measured.on: His-JNK3 (ref 14-501, Upstate) (UniProt P53779 1-422)
- Sequence (P53779 other isoform, or with tags, fused parts or gaps): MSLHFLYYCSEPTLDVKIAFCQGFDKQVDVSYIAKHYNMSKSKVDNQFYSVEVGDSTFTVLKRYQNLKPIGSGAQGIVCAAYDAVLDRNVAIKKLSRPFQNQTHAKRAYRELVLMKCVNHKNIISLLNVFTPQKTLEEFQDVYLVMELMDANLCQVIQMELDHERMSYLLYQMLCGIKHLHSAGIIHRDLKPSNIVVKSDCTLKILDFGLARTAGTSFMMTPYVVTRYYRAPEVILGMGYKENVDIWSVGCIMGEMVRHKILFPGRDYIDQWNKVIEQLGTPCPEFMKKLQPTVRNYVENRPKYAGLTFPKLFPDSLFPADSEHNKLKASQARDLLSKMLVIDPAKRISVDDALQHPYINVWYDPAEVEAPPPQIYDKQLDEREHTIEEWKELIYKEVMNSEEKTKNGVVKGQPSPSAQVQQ
- procedure.text: JNK inhibition assay
Square brackets hold non-standard residues; d marks the D form. Ends that are not written are not given here.
readout.name: IC50

Query RPKRPTTL[dR]LF [SEQ ID NO: 6] yields IC50 of 120 nM

Recorded values, source patent US20160115200A1.
